These data points were gathered from PubChem BioAssay.

Experiment: RPL19A-GFP modulators, yeast TOR pathway, confirmation, cell-based, S. cerevisiae, flow cytometry, cherry picks, mother/daughter gates (AID 2270)
Details: S. cerevisiae RPL19A-GFP strain, 3 h, measured here: mother cell gate, at 10 µM, stronger effect = lower value, 100 = same GFP as DMSO wells

compound	GFP response vs DMSO [%]
O=C(COc1c(Br)cc(Br)c2cccnc12)N1CCc2ccccc2C1	97.2
CCOc1ccc(N2C(=O)CC(Sc3nccc(C)n3)C2=O)cc1 (stereo not drawn)	97.3
Cc1cc(O)ccc1NC(=O)c1ccccc1	95.6
O=C(/C=C/c1ccc(F)cc1)NC(=S)NNC(=O)c1cnccn1	105
COc1ccccc1-c1noc(-c2cccnc2)n1	95.4
Cc1cc(N)n2ncc(-c3ccccc3)c2n1	94
S=C(Nc1ccc(Cl)cc1)Nc1ccc2cn[nH]c2c1	93.3
CCNC(=O)/C(C#N)=C/c1c(N2CCOCC2)nc2ccccn2c1=O	95.4
N#Cc1cc([N+](=O)[O-])c(-n2nnc3ccccc32)c([N+](=O)[O-])c1	88.8
Cc1ccccc1N1C(=O)CC(Sc2nnc(-c3ccccc3)o2)C1=O (stereo not drawn)	93.2
COc1cccc(-c2nnc(NC(=O)c3ccc(S(=O)(=O)N(CC(C)C)CC(C)C)cc3)o2)c1	100
COC(=O)c1sc(-c2ccc(C(C)(C)C)cc2)cc1NC(=O)CCC(=O)O	98.9
CS(=O)(=O)c1sc(C#N)c2c1C(=O)CC(c1ccccc1)C2 (stereo not drawn)	96.6
CCOC(=O)CS(=O)(=O)c1nc(-c2ccccc2)cc(C(F)(F)F)n1	96.2
CNC(=O)c1c(O)c2cccc3c2n(c1=O)CC3	103
COc1cc(NC(=O)c2ccc(C)cc2C)ccc1NC(=O)c1cc2ccccc2o1	94.4
COc1cccc(/C=N\NC(=O)c2cc(OCC(F)(F)F)ccc2OCC(F)(F)F)c1	97.9
COc1ccc(-c2noc(CCC(=O)Nc3cccc(C)c3)n2)cc1	96.2
C/C(=N\NC(=O)c1cccc(Br)c1)c1ccccn1	102
CCCCOC(=O)C1CCC[C@@H](C)N1 (stereo partly drawn)	100
Cc1sc(NC(=O)c2ccco2)nc1-c1ccccc1	93.6
COc1ccc(N2C(=O)c3cccc4cccc(c34)C2=O)nn1	98.7
Cc1ccc(N2C(=O)C3C4C=CC(CNC(=S)Nc5ccc(Cl)cc5)(O4)C3C2=O)cc1 (stereo not drawn)	100

* * *

Test: modulators of CIT2-GFP expression in yeast, confirmation, S. cerevisiae, GFP fusion, cherry picks, mother/daughter gates (AID 2274)
Details: S. cerevisiae CIT2-GFP strain, flow cytometry, 3 h; measured here: mother cell gate; at 10 µM; stronger effect = higher value
Entries and their GFP response, % of DMSO values follow.
quantityKind: GFP response, % of DMSO (%)

molecule	quantityKind	observedValue
S=C(Sc1ccc(Cl)cc1)Sc1ccc(Cl)cc1	GFP response, % of DMSO	107
O=[N+]([O-])c1ccc(S(=O)(=O)c2ccccc2)nc1	GFP response, % of DMSO	91.5
COc1ccccc1-c1noc(CCC(=O)Nc2cccc(C(F)(F)F)c2)n1	GFP response, % of DMSO	94.4
Cc1cc(C)nc(/N=C(\N)N2CCCCCC2)n1	GFP response, % of DMSO	100
Cc1ccc(C(=O)NNC(=S)NC(=O)COc2ccccc2)cc1	GFP response, % of DMSO	110
Cc1noc(/C=C/c2cccnc2)c1[N+](=O)[O-]	GFP response, % of DMSO	89.1
Cc1ccc(S(=O)(=O)N(CC(=O)Nc2cccnc2)c2ccccc2C)cc1	GFP response, % of DMSO	94.4
O=c1[nH]n(Cc2ccccc2)c2ccccc12	GFP response, % of DMSO	94.5
Nc1ccccc1NC(=O)c1ccccc1	GFP response, % of DMSO	103
O=C(Nc1c2ccccc2nc2ccccc12)C(Cl)(Cl)Cl	GFP response, % of DMSO	70.8
Cc1cccc(C)c1NC(=O)C(Cl)C(=O)c1ccccc1 (stereo unspecified)	GFP response, % of DMSO	87.8
Cc1[nH]c2ccccc2c1C(c1ccccn1)N1CCC(C(N)=O)CC1 (stereo unspecified)	GFP response, % of DMSO	101
Cc1ccc(S(=O)(=O)Nc2cc(Cl)c(O)c3ncccc23)cc1	GFP response, % of DMSO	96.8
O=C(N/N=C/c1ccc(Cl)cc1Cl)c1cccc(F)c1	GFP response, % of DMSO	84.8
O=c1c(-c2ccc(Cl)cc2)[n+]([O-])c2ccccc2n1O	GFP response, % of DMSO	91
Cc1ccc(N2C(=O)C(Cl)=C(Nc3c(C)n(C)n(-c4ccccc4)c3=O)C2=O)cc1	GFP response, % of DMSO	100
O=C(Nc1cc(Sc2ccccn2)cc([N+](=O)[O-])c1)c1cccc(Cl)c1	GFP response, % of DMSO	89.3
O=[N+]([O-])c1ccc(N2CCN(CCO)CC2)cc1Sc1ccccn1	GFP response, % of DMSO	102
COc1ccc(N2C(=O)CC(Sc3nccc(C)n3)C2=O)cc1 (stereo unspecified)	GFP response, % of DMSO	100
CC(=O)c1ccc(N2CCN(C(=O)c3ccc(Br)cc3)CC2)c(F)c1	GFP response, % of DMSO	104
COCCN(CCOC)S(=O)(=O)c1ccc(C(=O)Nc2nnc(C)o2)cc1	GFP response, % of DMSO	101
CC(C(=O)NCCc1ccc(F)cc1)N1CCN(Cc2ccccc2)CC1 (stereo unspecified)	GFP response, % of DMSO	95.5
COc1cc(-c2noc(-c3cccc(Cl)c3)n2)cc(OC)c1OC	GFP response, % of DMSO	103
Cc1[nH]c2ccccc2c1C(=O)C(C)OC(=O)C1CCC1 (stereo unspecified)	GFP response, % of DMSO	106
O=C1c2ccsc2SCCN1Cc1ccccc1Cl	GFP response, % of DMSO	90.7
Cn1nnnc1N=N/C(=N/Nc1ccccc1)c1ccccc1	GFP response, % of DMSO	85.8
CC(C)(C)c1cc(C(c2cccnc2)N2CCN(CCO)CC2)cc(C(C)(C)C)c1O (stereo unspecified)	GFP response, % of DMSO	82.8
C=CCOc1ccc(C(=O)n2cc(C(=O)OC)c3ccccc32)cc1	GFP response, % of DMSO	101
CCCc1cc(N2CCN(c3ccccn3)CC2)n2nc(C)c(-c3ccccc3)c2n1	GFP response, % of DMSO	148
COCCN(CCOC)S(=O)(=O)c1ccc(C(=O)Nc2nnc(C3CC3)o2)cc1	GFP response, % of DMSO	106
Cc1cc(N)n2ncc(-c3ccccc3)c2n1	GFP response, % of DMSO	98.5
Cc1ccc(N2CC(C(=O)OCc3nnc(-c4ccccc4)o3)CC2=O)cc1 (stereo unspecified)	GFP response, % of DMSO	103
Cc1ccc(C(=O)N/C(=C/c2ccco2)C(=O)N2CCOCC2)cc1	GFP response, % of DMSO	95.6
CCCCN(CCCC)S(=O)(=O)c1ccc(C(=O)Nc2nnc(COC)o2)cc1	GFP response, % of DMSO	101
COc1cccc2cc(C(=O)N3CCN(C/C=C/c4ccccc4)CC3)c(=O)oc12	GFP response, % of DMSO	96.8
COc1ccc(CN2CCN(c3ncccn3)CC2)c(C)c1C	GFP response, % of DMSO	102
O=C(COc1ccccc1)NNC(=S)NC(=O)c1ccccc1	GFP response, % of DMSO	98.7
COc1ccccc1-c1nnc(NC(=O)c2ccc(S(=O)(=O)N(C)Cc3ccccc3)cc2)o1	GFP response, % of DMSO	98
O=C1c2cccc3cccc(c23)C(=O)N1c1nncs1	GFP response, % of DMSO	99.8
O=C(Nc1ccccc1C(F)(F)F)c1cc(-c2ccc(O)cc2)on1	GFP response, % of DMSO	98
Cc1ccc(C2CC(c3ccco3)=NN2S(C)(=O)=O)cc1 (stereo unspecified)	GFP response, % of DMSO	95.6
Cc1cc(O)c(C(=O)/C=C/c2ccccc2Br)c(=O)o1	GFP response, % of DMSO	93.4
COc1ccc(C2CC(c3ccccc3)=NN2S(=O)(=O)c2ccccc2)c(OC)c1 (stereo unspecified)	GFP response, % of DMSO	104
COc1cccc2c1Oc1ncccc1N(C(=O)CCC(=O)NCc1cccc(C)c1)C2	GFP response, % of DMSO	104
COc1ccc(C(=O)C2CCCN(C(=O)c3cccs3)C2)cc1F (stereo unspecified)	GFP response, % of DMSO	99.3
COc1ccc(C2CC(c3ccccc3)=NN2S(=O)(=O)c2ccc(C)cc2)c(OC)c1 (stereo unspecified)	GFP response, % of DMSO	99.3

* * *

Target: Integrin beta-1 (Homo sapiens) + Integrin alpha-4 (Homo sapiens) (UniProt P13612+P05556)
Sequence (P05556 whole entry, looked up): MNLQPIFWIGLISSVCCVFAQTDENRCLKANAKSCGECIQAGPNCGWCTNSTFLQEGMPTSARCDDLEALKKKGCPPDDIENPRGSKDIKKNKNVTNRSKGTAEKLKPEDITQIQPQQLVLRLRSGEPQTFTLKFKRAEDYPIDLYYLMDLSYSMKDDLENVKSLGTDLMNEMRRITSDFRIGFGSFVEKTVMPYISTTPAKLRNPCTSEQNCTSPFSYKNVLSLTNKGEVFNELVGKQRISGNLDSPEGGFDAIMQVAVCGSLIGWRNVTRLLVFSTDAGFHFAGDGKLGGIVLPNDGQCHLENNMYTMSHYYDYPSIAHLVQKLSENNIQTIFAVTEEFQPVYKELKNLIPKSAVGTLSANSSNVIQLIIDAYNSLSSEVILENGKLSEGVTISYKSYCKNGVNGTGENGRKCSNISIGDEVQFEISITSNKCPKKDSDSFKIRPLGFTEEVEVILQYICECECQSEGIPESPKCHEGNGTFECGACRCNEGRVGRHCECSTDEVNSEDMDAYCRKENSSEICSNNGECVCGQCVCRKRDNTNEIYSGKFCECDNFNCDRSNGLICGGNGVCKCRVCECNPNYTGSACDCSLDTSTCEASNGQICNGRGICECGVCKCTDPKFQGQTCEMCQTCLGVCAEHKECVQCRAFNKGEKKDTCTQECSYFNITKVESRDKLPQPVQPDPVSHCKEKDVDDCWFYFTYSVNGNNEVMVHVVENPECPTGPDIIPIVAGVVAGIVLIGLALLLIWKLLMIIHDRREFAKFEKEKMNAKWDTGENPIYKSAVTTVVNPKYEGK
Sequence (P13612 whole entry, looked up): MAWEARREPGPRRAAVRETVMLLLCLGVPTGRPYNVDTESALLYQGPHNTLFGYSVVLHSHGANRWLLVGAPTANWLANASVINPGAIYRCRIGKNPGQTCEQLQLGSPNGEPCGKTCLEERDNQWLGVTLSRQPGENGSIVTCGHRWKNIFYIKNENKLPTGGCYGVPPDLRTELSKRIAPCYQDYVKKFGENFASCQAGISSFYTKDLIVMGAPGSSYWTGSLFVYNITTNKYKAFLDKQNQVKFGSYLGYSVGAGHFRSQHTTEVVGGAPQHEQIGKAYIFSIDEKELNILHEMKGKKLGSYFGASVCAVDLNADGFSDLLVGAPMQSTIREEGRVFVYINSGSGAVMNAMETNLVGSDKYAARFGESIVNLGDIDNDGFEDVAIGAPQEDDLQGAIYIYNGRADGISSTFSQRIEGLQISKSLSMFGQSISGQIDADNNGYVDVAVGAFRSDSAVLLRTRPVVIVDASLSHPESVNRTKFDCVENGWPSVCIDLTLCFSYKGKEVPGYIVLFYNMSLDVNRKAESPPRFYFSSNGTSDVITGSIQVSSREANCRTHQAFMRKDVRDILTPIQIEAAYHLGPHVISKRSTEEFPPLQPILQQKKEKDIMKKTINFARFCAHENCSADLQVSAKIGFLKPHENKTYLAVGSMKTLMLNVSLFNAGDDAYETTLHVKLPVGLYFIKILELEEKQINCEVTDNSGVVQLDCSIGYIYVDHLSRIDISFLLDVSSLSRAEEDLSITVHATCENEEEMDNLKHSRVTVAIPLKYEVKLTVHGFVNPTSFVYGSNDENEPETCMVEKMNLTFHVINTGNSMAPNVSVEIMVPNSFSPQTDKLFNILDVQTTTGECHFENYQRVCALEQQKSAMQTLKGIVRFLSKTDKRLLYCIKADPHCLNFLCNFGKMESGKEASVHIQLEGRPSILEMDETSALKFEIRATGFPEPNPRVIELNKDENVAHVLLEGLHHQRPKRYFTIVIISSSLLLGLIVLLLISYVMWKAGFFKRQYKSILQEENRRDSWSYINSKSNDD
Experiment: inhibition of HUTS-21 binding to VLA-4, pilot screen, VLA-4 allosteric modulator project, U937 cells, HUTS-21 mAb, flow cytometry, validation set (AID 2674);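 further: antibody binding induced by the VLA-4 ligand LDV present at three times its Kd; 0% = LDV ligand with antibody and no compound and 100% = antibody without LDV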
Conditions: HUTS-21 LIBS mAb binding, at 6.7 µM, stronger effect = higher value, binding induced by LDV ligand

compound	inhibition (%)
CN(C)C(=O)C12CCC(C)(c3nc4ccccc4nc31)C2(C)C (stereo unspecified)	0.69
CCSc1nc(O)c(C2OC(=O)c3c2ccc(OC)c3OC)c(=O)n1CC (stereo unspecified)	-1.79
OC[C@H]1O[C@@H](n2cnc3c(NC4CCCC4)ncnc32)[C@H](O)[C@@H]1O	6.29
CCn1c2ccccc2c2cc(CC(N)=O)ccc21	20.2
COc1ccc(CNC(=O)c2cc3c(=O)n4ccccc4nc3n(Cc3cccnc3)c2=N)cc1	-2.11
COc1cccc(OC2OC3COC(C)(C)OC3C(O)C2NC(C)=O)c1 (stereo unspecified)	5.61
CCN(Cc1ccncc1)Cc1nc(Cc2ccccc2Cl)no1	-12.4
COc1cc2c(cc1O)CCN(C(=O)c1ccco1)C2C (stereo unspecified)	5.03
Cc1ccccc1C(OCCN(C)C)c1ccccc1 (stereo unspecified)	10.9
Cc1c(CCOC(=O)CC23CC4CC(CC(C)(C4)C2)C3)sc[n+]1Cc1ccc([N+](=O)[O-])cc1	8.15
O=C(CCCCCCCC(=O)c1ccccc1)c1ccccc1	-5.89
